Target: T1, monkey CEA expressed on CHO cell surface (cynomolgus monkey)
T1 construct: also called cynoCEA-CHO; monkey CEA proteins on the cell surface
T1 chain: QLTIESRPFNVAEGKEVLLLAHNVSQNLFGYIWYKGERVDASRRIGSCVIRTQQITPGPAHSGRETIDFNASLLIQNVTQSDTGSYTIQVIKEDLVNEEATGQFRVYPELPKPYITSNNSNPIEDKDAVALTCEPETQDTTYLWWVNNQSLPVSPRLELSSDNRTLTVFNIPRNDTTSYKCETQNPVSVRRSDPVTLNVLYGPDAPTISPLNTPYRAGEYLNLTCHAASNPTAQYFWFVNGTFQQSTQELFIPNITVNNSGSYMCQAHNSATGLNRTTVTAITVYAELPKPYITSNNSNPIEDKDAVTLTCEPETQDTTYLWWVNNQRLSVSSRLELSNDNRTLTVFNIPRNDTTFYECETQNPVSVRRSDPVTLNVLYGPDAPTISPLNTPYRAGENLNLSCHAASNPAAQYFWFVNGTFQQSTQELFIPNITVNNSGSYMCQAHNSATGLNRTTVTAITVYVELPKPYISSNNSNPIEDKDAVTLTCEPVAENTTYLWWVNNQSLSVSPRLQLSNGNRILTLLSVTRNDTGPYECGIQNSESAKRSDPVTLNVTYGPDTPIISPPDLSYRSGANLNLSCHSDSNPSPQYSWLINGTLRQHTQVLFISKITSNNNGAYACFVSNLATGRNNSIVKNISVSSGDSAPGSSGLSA
Test: FACS, cynoCEA-CHO cells
quantity: EC50

Measured EC50 of mAb63 (antibody, V domains shown, Murine hybridoma antibody) VH: EVQLQQSGPELVKPGASVKMSCKASGYTFTDFYMNWVRQSHGKSLEWIGDIFPKNGNTDYNRKFKDKATLTVDKSSNTVYMEFRSLTLEDSAIYFCARSGYGNYVFDYWGQGTIFTVSS VL: DVQMTQTPSALSASLGDRVTISCRTSQDINIYLNWYQQKPDGTVKLLIYYRSGLLSGVPSRFSGSGSGTDYSLTISNLEPEDIATYFCQQGNTLPPTFGGGTKLEIK : 2.88 nM

Measured EC50 of mAb47 (antibody, V domains shown, Murine hybridoma antibody) VH: QIQLVQSGPELKKPGETVKISCKASGYTFTTYGMSWVKQAPGKGLKWMGWINTYSGVPTYADDFKGRFAFSLETSASTAYLQINNLKNEDTATYFCARRGNYGRWDFDVWGTGTTVTVSS VL: EIVLTQSPALMAASPGEKVTITCSVSSTISSSNLHWYQQKSETSPKPWIYGTSNLASGVPVRFSGSGSGTSYSLTISSMEAEDAATYYCQQWSIYPLTFGAGTKLELK : 1.66 nM

Measured EC50 of mAb67 (antibody, V domains shown, Murine hybridoma antibody) VH: EVQLQQSGPELVKPGASVKIYCKASGYTFTDYHMNWVKQSHGKSLEWIGDINPDIGGTSYNQNFKGKATLTVDKSSSTAYMELRSLTSEDSAVYYCSRWDFDSFANWGQGTLVTVSA VL: DIVMTQSPASLAMSLGKRATISCRASESVSIIGTNLIHWYQQKPGQPPKLLIYHASNLETGVPARFSGSGSGADFTLTIDPVEGDDVALYYCLQSRKIPYTFGGGTKMEIK : 6 nM

Measured EC50 of mAb103 (antibody, V domains shown, Murine hybridoma antibody) VH: QIQLVQSGPELKKPGETVKISCKASGYTFTTYGVIWVKQAPGKGLKWMGWINTYSGVPTYADDFKGRFAFSLETSASTAFLQINNLKNEDTATYFCARKKTLTTVTPWFAYWGQGTLVTVSA VL: DLVVTQSSSASFSLGASAKLTCTLSSQHSTYTIEWYQQQPLKPPKYVMELKKDGSHSTGDGIPDRFSGSSSGADRYLTISNIQPEDEAIYICGVGNTIKEQFVYVFGGGTKVTVL : 0.71 nM
